system: L1210; assay: Cytotoxicity against mouse L1210 cells assessed as cell growth inhibition; type: functional, cell-based; conditions: Mus musculus, L1210
pIC50: −log10 of the molar value.
Quick reference: pIC50 of the listed items.

Compound	Measurement Target	pIC50
O[C@]12C=C(C3=NCCc4c3[nH]c3ccccc43)[C@@H]3CCN(CCCC/C=C\CC1)C[C@@]31C[C@@H]3/C=C\CCCCN3[C@H]12 [3,4-DIHYDROMANZAMINE A]	L1210	5.32
Cc1ccc(C[C@H](N)[C@@H]2NCCc3c2[nH]c2ccc(Br)cc32)cc1	L1210	5.51
Cn1c2cnccc2c2c(Br)c(O)ccc21	L1210	6.38
CNC(CSC)c1nccc2c1[nH]c1ccc(O)c(Br)c12 (stereo not given)	L1210	5.74
Oc1ccc2[nH]c3c(C4=C[C@@]5(O)CC/C=C\CCCCN6CC[C@@H]4[C@]4(C[C@@H]7/C=C\CCCCN7[C@H]45)C6)nccc3c2c1 [MANZAMINE Y]	L1210	5.82

###

tested on: HT-29; assay: Cytotoxicity against human HT-29 cells assessed as inhibition of cell growth measured after 48 hrs by MTT assay; assay type: functional, cell-based; details: HT-29, 48 h
pIC50: −log10 of the molar value.
Readout Label: pIC50

Compound Structure	Readout Label	Recorded Number
COc1cc(-c2nc(Cn3cc(CN4C(=O)c5ccc(C)cc5C4=O)nn3)cc3c2[nH]c2ccccc23)cc(OC)c1OC	pIC50	5.44

###

test system: L5178Y; assay: Cytotoxicity against mouse L5178Y cells assessed as cell growth inhibition; type: functional, cell-based
Readout Label: IC50 (nM)

Molecule	Recorded Number
Cn1c2cnccc2c2c(Br)c(O)ccc21	420
Cc1ccc(C[C@H](N)[C@@H]2NCCc3c2[nH]c2ccc(Br)cc32)cc1	3100
CNC(CSC)c1nccc2c1[nH]c1ccc(O)c(Br)c12 (stereo not drawn)	1800

###

tested on: LoVo; assay: Cytotoxicity against human LoVo cells assessed as cell growth inhibition; type: functional, cell-based

Compound Structure	Unit	IC50
CCCCc1nc(C(=O)O)cc2c1[nH]c1ccccc12	µM	11

###

test system: MCF7; test: Cytotoxicity against human MCF7 cells assessed as cell growth inhibition; assay type: functional, cell-based

Compound Structure	IC50 (µM)
COc1ccccc1-c1c(-c2ccccc2)ncc2[nH]c3ccccc3c12	35.3
COc1ccc(-c2c(-c3ccccc3)ncc3[nH]c4ccccc4c23)cc1	20.8
